Tested on: Staphylococcus aureus
Experiment: Antibacterial activity against Staphylococcus aureus after 24 hr by agar disk diffusion method
Assay type: functional, organism-based
pIC50: −log10 of the molar value.
Measured pIC50, listed per entry.
Measured property: pIC50

• Cc1cc(O)c2c(c1)C(=O)c1cc(O)cc(O)c1C2=O [EMODIN] = 4.33
• O=C1c2ccc(O)cc2C(=O)c2c(O)cc(CO)cc21 = 3.66
• O=C1c2ccccc2C(=O)c2c(O)cc(CO)cc21 [OMEGA-HYDROXYPACHYBASIN] = 3.91
• O=C1c2cc(CO)cc(O)c2C(=O)c2cccc(O)c21 = 3.93
